# Tested on: NOMO1
# TEST_DETAILS: cell viability relative to DMSO control; higher = less cytotoxic
# SETUP_CONDITIONS: RPMI 5 mM glucose + 10% FBS; 48 h; 0.0211 µM
Hi there, I'd appreciate the recorded cell viability for every entry that follows.
Kindly answer with a numeric value in %, unit omitted.

# cell viability of CC[C@]12\C=C/CN3CC[C@]4([C@@H](N(C)C5=CC(=C(C=C45)[C@]6(C[C@H]7C[C@H](CN(C7)CC8=C6[NH]C9=C8C=CC=C9)C(C)(F)F)C(=O)OC)OC)[C@](O)([C@@H]1OC(C)=O)C(=O)OC)[C@H]23 = 85.2

# cell viability of Cc1cc(Nc2nc(N[C@@H](C)c3ccc(F)cc3)c(C#N)cc2F)n[nH]1 = 99.2

# cell viability of O=C1Nc2ccc(I)cc2/C1=C/c1cc(Br)c(O)c(Br)c1 = 102

# cell viability of CC[C@@]1(O)C(=O)OC\C2=C1\C=C\3N(CC4=C3N=C5C=CC=CC5=C4)C2=O = 106

Origin of measurements: the supplement of paper PMC11451515
